molecular target: human MAT2A enzyme (Homo sapiens (Human), UniProt P31153)
Sequence (P31153 whole entry): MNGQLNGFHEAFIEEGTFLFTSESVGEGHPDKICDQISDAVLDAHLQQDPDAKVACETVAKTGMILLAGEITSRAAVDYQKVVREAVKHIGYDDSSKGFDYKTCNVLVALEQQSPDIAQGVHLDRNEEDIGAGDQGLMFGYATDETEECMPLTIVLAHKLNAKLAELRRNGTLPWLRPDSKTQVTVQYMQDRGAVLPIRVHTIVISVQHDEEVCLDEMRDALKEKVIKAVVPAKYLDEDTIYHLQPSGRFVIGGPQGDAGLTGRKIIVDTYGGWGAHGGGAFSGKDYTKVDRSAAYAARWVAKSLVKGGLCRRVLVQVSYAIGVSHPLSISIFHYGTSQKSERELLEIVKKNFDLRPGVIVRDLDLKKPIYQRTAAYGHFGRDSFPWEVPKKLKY
PARAMETER: IC50

What value of IC50 has been recorded for this entry: `COC(=O)c1c(N)c2ccc(Br)cc2n(-c2ccc(OC)cc2)c1=O` 1.86 nM

What value of IC50 has been recorded for this entry: `COC(=O)c1c(N)c2ccc(C(F)(F)F)nc2n(-c2ccc(N)cc2Cl)c1=O` 2.29 nM

What value of IC50 has been recorded for this entry: `COC(=O)c1c(N)c2ccc(C(F)(F)F)cc2n(-c2ccc(C)nc2)c1=O` 2.5 nM

What value of IC50 has been recorded for this entry: `COC(=O)c1c(N)c2ccc(I)cc2n(-c2ccc(Cl)c3cnccc23)c1=O` 1.96 nM
